- run-description: NCI Yeast Anticancer Drug Screen. Data for the rad50 strain (AID 155);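 also: 0% = growth of vehicle-only cultures of the same strain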
- measurement-parameters: S. cerevisiae rad50 strain growth inhibition; at 50.0 µM
About 79,000 compounds went through this panel and 15% of them were active in at least one assay; those are over-represented in the sample as a whole. Activity calls are given as the source filed them. Rule as the data show it: active = growth inhibition above about 70%; inactive = the rest.
Labels: active, inactive

> print(dat)
                                   compound     class
1  CC(=O)OC1=CC(n2cc(F)c(=O)[nH]c2=O)OC(C)C1=O (stereo unspecified)  inactive
2  Cc1cc(N(CCOS(C)(=O)=O)CCOS(C)(=O)=O)ccc1C=Nc1ccccc1C(=O)O    active
3          Cc1cc(NC(=S)SCc2ccc(F)cc2)ccc1Br    active
4     O=C(NNc1ccccc1)c1ccc([N+](=O)[O-])cc1    active
5   c1csc(-c2nnc(C34CC5CC(CC(C5)C3)C4)o2)c1  inactive
6  CC1([N+](=O)[O-])C(=O)C2(N3CCCCC3)CCCC2C1c1ccccc1 (stereo unspecified)  inactive

###

- run-description: NCI Yeast Anticancer Drug Screen. Data for the mec2-1 strain (AID 157)
- measurement-parameters: S. cerevisiae mec2-1 strain, at 50.0 µM, active compounds read high
The panel holds about 79,000 compounds, 15% with a hit somewhere; the sample as a whole holds those more often.
measured-attribute: growth inhibition (%)

> print(dat)
                                    compound  measured.attribute  experimental.value
 1  CSc1ccc(/C=C2/C[N+](C)(C)C/C(=C/c3ccc(SC)cc3)C2=O)cc1   growth inhibition                90.7
 2                    CCOC(=O)c1csc(=S)[nH]1   growth inhibition                80.2
 3      OC(Cn1cncn1)(Cn1cncn1)c1ccc(Cl)cc1Cl   growth inhibition                54.5
 4  O=C(NCc1ccc(F)cc1)c1ccc(C(=O)NCc2ccc(F)cc2)cc1   growth inhibition               -4.05
 5               CCN(CC)C(=O)CCCCC(=O)OC(C)C   growth inhibition                -1.1
 6  O=C(Cc1ccc(C2=NCCN2)cc1[N+](=O)[O-])c1ccc(C2=NCCN2)cc1   growth inhibition                89.6
 7              Cc1ccc2sc3ccc(N)cc3c(=O)c2c1   growth inhibition                31.6
 8         Cc1ccccc1N1C(=O)C(=O)c2cccc(C)c21   growth inhibition                99.5
 9             Nc1ccc(C(=O)/C=C/c2ccccn2)cc1   growth inhibition                31.4
10                  CC(=O)N(C)NC(=O)c1ccccc1   growth inhibition               -12.8
11  COc1ccc(C=C(C(=O)c2ccccc2)C(=O)c2ccccc2)cc1   growth inhibition                92.3
12  C1CCC2CC3(CCNCC3)CCC2C1 (stereo not given)   growth inhibition                55.4
13                  CP(=O)(c1ccccc1)c1ccccc1   growth inhibition                13.2
14  COc1ccc2c(c1)O[C@H]1c3ccc(O)cc3OC[C@@H]21   growth inhibition                69.5
15              Cc1cccc2nc3nc(Cl)c(Cl)nc3n12   growth inhibition                50.1
16  COC(=O)C1(C)CCCC2(C)C3CC(=O)C(C(C)C)=CC3(O)CCC12 (stereo not given)   growth inhibition               -3.25
17               CCc1ccc(/C(C)=N/NC(N)=S)cc1   growth inhibition                19.9
18  CC1(C)C2CCC1(CS(=O)O)C(=O)C2.[Ag] (stereo not given)   growth inhibition                99.5
19               Cc1ccc(NN(C)c2ccc(C)cc2)cc1   growth inhibition                16.1
20  COc1ccc(C2=C(Cl)C(=O)N(c3ccc(C)cc3)C(=O)C2(Cl)Cl)cc1   growth inhibition                96.8
21  NCCCC(=O)NC(Cc1cnc[nH]1)C(=O)O (stereo not given)   growth inhibition                29.4
22  Cc1ccc(Nc2nc(C)c(C(=O)C/C(=N\NC(N)=S)C(=O)Nc3ccc(Cl)cc3C)s2)cc1   growth inhibition                17.2
23   Cc1ccc(-c2n[nH]c(=O)n2/N=C\c2ccccc2)cc1   growth inhibition                21.9
24  CC1(C)C[C@H]2C=C(C=O)[C@]34C[C@]3(C(=O)OC4O)[C@H]2C1 (stereo not given in full)   growth inhibition                93.6
25  O=P(OCCCl)(OCCCl)C(Nc1cccc2ccccc12)c1ccccc1 (stereo not given)   growth inhibition                91.4
